Target: T1, recombinant rat MASP1 active protease (amino acids 302-704, C-terminal His Tag) (rat, UniProt Q8CHN8 302-704)
T1 sequence: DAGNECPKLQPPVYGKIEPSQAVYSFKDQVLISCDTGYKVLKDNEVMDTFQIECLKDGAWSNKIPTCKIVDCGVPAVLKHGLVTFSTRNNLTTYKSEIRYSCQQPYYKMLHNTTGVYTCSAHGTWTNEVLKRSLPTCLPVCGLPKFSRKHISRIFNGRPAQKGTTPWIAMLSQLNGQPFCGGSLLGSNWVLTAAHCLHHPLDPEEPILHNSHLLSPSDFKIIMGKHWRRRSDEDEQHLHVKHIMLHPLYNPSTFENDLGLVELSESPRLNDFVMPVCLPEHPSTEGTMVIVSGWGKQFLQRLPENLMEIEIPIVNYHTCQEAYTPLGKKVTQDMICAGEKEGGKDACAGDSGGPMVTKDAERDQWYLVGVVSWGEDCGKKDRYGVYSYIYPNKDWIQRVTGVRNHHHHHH
Test: cell-based or functional assay
Numbered stars: 1 amine (or outer) side, 2 acyl side, 3 side chain; on linkers, the order of the positions; unused ones are H or OH. Bridge positions count the residues as written; N and C are the ends. Square brackets hold non-standard residues; d marks the D form. Primed or numbered codes have the meaning given here. Ends that are not written are not given here. Freidinger's Lactam = (2S)-2-[(3R)-3-amino-2-oxopyrrolidin-1-yl]-4-methylpentanoic acid (Freidinger's lactam), CC(C)C[C@@H](C(=O)[*:2])N1CC[C@@H](N[*:1])C1=O; X13 = (2S)‑2‑amino‑3‑(1-methylcyclopropyl)propanoic acid, CC1(C[C@H](N[*:1])C(=O)[*:2])CC1; TTDS(3) = 1,13-Diamino-4,7,10-trioxatridecan-succinamic acid; Oic = O=C(O)[C@@H]1C[C@@H]2CCCC[C@@H]2N1; tBuAla = CC(C)(C)C[C@H](N)C(=O)O; Pen = CC(C)(S)[C@H](N)C(=O)O; NMeC = CN[C@@H](CS)C(=O)O; Orn = NCCC[C@H](N)C(=O)O; PEG2 = NCCOCCOCCC(=O)O; Sar = CNCC(=O)O
We label by threshold. Values of rat MASP1 IC50 strictly beneath 80 nM are Met. Values of 80 nM and up are Not met.

1. [Orn]ICSRS[tBuAla]PPI[NMeC]IPD-NH2 (disulfide 3-11; N-terminus assumed; SMILES CC[C@H](C)[C@H](NC(=O)[C@@H](N)CCCN)C(=O)N[C@H]1CSSC[C@@H](C(=O)N[C@H](C(=O)N2CCC[C@H]2C(=O)N[C@@H](CC(=O)O)C(N)=O)[C@@H](C)CC)N(C)C(=O)[C@H]([C@@H](C)CC)NC(=O)[C@@H]2CCCN2C(=O)[C@@H]2CCCN2C(=O)[C@H](CC(C)(C)C)NC(=O)[C@H](CO)NC(=O)[C@H](CCCNC(=N)N)NC(=O)[C@H](CO)NC1=O) [Example 77: (Orn)-IC+SRS-((tBu)A)-PPI-((N-Me)C)+IPD-NH2] : Met
2. [Sar]ICSRS[X13]P[Oic]I[Pen]IP-NH2 (disulfide 3-11; N-terminus assumed; SMILES CC[C@H](C)[C@H](NC(=O)CNC)C(=O)N[C@H]1CSSC(C)(C)[C@@H](C(=O)N[C@H](C(=O)N2CCC[C@H]2C(N)=O)[C@@H](C)CC)NC(=O)[C@H]([C@@H](C)CC)NC(=O)[C@@H]2C[C@@H]3CCCC[C@@H]3N2C(=O)[C@@H]2CCCN2C(=O)[C@H](CC2(C)CC2)NC(=O)[C@H](CO)NC(=O)[C@H](CCCNC(=N)N)NC(=O)[C@H](CO)NC1=O) : Not met
3. [Piperidin‑4‑ylacetic acid]ICSRS[tBuAla]PPICIPD-OH (disulfide 3-11) [Example 475: (Piperidin-4-ylacetic acid)-IC+SRS-((tBu)A)-PPIC+IPD-OH] : Not met
4. [Sar]ICSRS[tBuAla]PPI[Pen]IP-{PEG2-NH2} (disulfide 3-11; also: HCl salt) [Example 39: ((N-Me)G)-IC+SRS-((tBu)A)-PPI-(Pen)+IP-(PEG1(10 atoms))-NH2 (HCl salt)] : Met
5. [Sar]ICSRS[tBuAla]PPI[Pen]IP-{TTDS(3)-NH2} (disulfide 3-11) [Example 85: ((N-Me)G)-IC+SRS-((tBu)A)-PPI-(Pen)+IP-(TTDS)-NH2] : Met
6. [Sar]ICSRSLP[Oic]I[Pen]IP[Freidinger's Lactam]-OH (disulfide 3-11; N-terminus assumed; SMILES CC[C@H](C)[C@H](NC(=O)CNC)C(=O)N[C@H]1CSSC(C)(C)[C@@H](C(=O)N[C@H](C(=O)N2CCC[C@H]2C(=O)N[C@@H]2CCN([C@@H](CC(C)C)C(=O)O)C2=O)[C@@H](C)CC)NC(=O)[C@H]([C@@H](C)CC)NC(=O)[C@@H]2C[C@@H]3CCCC[C@@H]3N2C(=O)[C@@H]2CCCN2C(=O)[C@H](CC(C)C)NC(=O)[C@H](CO)NC(=O)[C@H](CCCNC(=N)N)NC(=O)[C@H](CO)NC1=O) [Example 527: ((N-Me)G)-IC+SRSLP-(Oic)-I-(Pen)+IP-(Freidinger's Lactam)-OH] : Not met
